Test system: SMN protein in SMA patient fibroblast cells (GM03813)
test_details: SMN protein assay (HTRF) in cultured cells
Assay type: cell-based
conditions: Homo sapiens, concentration producing 1.5 times SMN protein vs vehicle, SMA Type 1 patient fibroblasts, 48 hours, read-out: EC1.5x SMN protein
property_label: EC (1.5-fold) (µM)

> print(dat)
                                   molecule                       experimental.target  quantitative.readout
1  Cc1nc2ccc(-c3cc(=O)n4cc(N5CC[C@@H](N(C)C)C5)cc(C)c4n3)nn2n1  SMN protein in SMA patient fibroblast cells (GM03813)                0.0279
2  Cc1nc2ccc(-c3cc(=O)n4cc(N5CCN6CCC[C@@H]6C5)ccc4n3)nn2n1  SMN protein in SMA patient fibroblast cells (GM03813)                0.0997
3  Cc1nc2ccc(-c3cc(=O)n4cc(N5CCN(C)CC5)ccc4n3)nn2n1  SMN protein in SMA patient fibroblast cells (GM03813)                  0.09
4  Cc1nc2ncc(-c3cc(=O)n4cc(N5CCNCC5)ccc4n3)cn2n1  SMN protein in SMA patient fibroblast cells (GM03813)                 0.221
5  Cc1nc2ncc(-c3cc(=O)n4cc(N5CC6CN(C)CC6C5)ccc4n3)cn2n1 (centres unmarked)  SMN protein in SMA patient fibroblast cells (GM03813)                 0.313
6  Cc1nc2ccc(-c3cc(=O)n4cc(N5CC[C@@H](N(C)C)C5)ccc4n3)nn2n1  SMN protein in SMA patient fibroblast cells (GM03813)                 0.207
7  Cc1nc2ncc(-c3cc(=O)n4cc(N5CC6CNC6C5)ccc4n3)cn2n1 (centres unmarked)  SMN protein in SMA patient fibroblast cells (GM03813)                  2.88
8  Cc1nc2ncc(-c3cc(=O)n4cc(N5CCNC6(CC6)C5)ccc4n3)cn2n1  SMN protein in SMA patient fibroblast cells (GM03813)                  14.1
